Reference source: patent US20210032312A1

- test-system: T1, human CD8 alpha (CD8A) on primary human CD8+ T cells (human, UniProt P01732 22-235)
- T1 construct: whole, on cells; also called hCD8A
- T1 sequence (P01732 22-235): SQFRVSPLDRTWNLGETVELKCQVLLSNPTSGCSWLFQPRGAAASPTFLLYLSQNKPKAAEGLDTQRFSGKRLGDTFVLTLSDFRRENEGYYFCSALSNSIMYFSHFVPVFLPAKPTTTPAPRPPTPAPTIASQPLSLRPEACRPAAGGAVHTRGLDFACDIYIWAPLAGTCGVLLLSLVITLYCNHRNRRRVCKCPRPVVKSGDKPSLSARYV
- assay-text: flow cytometry, human CD8+ T cells, 2 uM FN3
readout-name: Human T-cell Binding 2 uM (MFI)

binder	Human T-cell Binding 2 uM (MFI)
P282AR9P1356_A6 (designed binder, FN3 domain) LPAPKNLVVSRVTEDSARLSWSKTDSSFDSFLIQYQESEKVGEAIVLTVPGSERSYDLTGLKPGTEYTVSIYGVDVVYIEGNPVFSNPLSAIFTT	10800

(I) P282AR9P1356_A4 (designed binder, FN3 domain) LPAPKNLVVSRVTEDSARLSWVKRPNSFDSFLIQYQESEKVGEAIVLTVPGSERSYDLTGLKPGTEYTVSIYGVDVVDYEGRPRWSNPLSAIFTT
(II) P283BR9P1363_C4 (designed binder, FN3 domain) LPAPKNLVVSRVTEDSARLSWPIVNTPLHFDSFLIQYQESEKVGEAIVLTVPGSERSYDLTGLKPGTEYTVSIYGVDVQYTATGQPERSNPLSAIFTT
-- ask # returns the entry with the larger Human T-cell Binding 2 uM (MFI); inputs I and II Mark your answer with the label of the selected entry.
-- reply I
(I: 16700 MFI, II: 9070 MFI)
